Listed next: entries and their corresponding growth inhibition.
Assay: NCI Yeast Anticancer Drug Screen. Data for the sgs1 mgt1 strain (AID 161);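 note: 0% = growth of cultures given vehicle only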
Details: S. cerevisiae sgs1 mgt1 strain, at 50.0 µM, active compounds read high
Protocol: Growth inhibition of yeast strains with defined genetic alterations is measured as a screen for potential anti-cancer activity. Selected strains with alterations in DNA damage repair or cell cycle control were exposed to compounds and growth inhibition was measured relative to vehicle treated controls. The strain used in this assay is sgs1 mgt1
Compounds without any hit were thinned out: in the full panel of roughly 79,000, 15% have a hit. Calls of active or inactive are those of the source. Cut-off read from the data, not from the text of the source: active = growth inhibition above about 70%; inactive = the rest.

{"columns": ["compound", "growth inhibition"],
 "data": [
  ["OCC(O)C(O)C(O)c1nn(-c2ccc(Cl)cc2)c2nc3cc(Cl)c(Cl)cc3nc12 (configuration not stated)", "-33.9% (inactive)"],
  ["CCCc1cc(OC(=O)c2c(O)cc(OC)cc2CCC)cc(O)c1C(=O)O", "15.9% (inactive)"],
  ["CCCCc1nc2c([nH]1)c(=O)n(C)c(=O)n2C", "5.2% (inactive)"],
  ["O=[N+]([O-])c1ccc(N/N=C2/CC3=C2CCCCCCCCCC3)c([N+](=O)[O-])c1", "11% (inactive)"],
  ["O=C(NCCCCCCNC(=O)c1cc(-c2ccccc2)nc2ccccc12)c1cc(-c2ccccc2)nc2ccccc12", "-42.6% (inactive)"],
  ["Cc1cccc(NC(=O)c2c(Cl)c(Cl)c(Cl)c(Cl)c2C(=O)O)c1C", "2.6% (inactive)"],
  ["Cn1cnc(N)c(N=O)c1=O", "10.1% (inactive)"],
  ["NNC(=S)N/N=C(\\c1nc2ccc(Cl)cc2[nH]c1=O)C(O)c1cccc([N+](=O)[O-])c1 (configuration not stated)", "12% (inactive)"],
  ["Cc1ccc(C(=O)Nc2c(C)cccc2C)cc1", "13.5% (inactive)"],
  ["OCCN(CCO)c1ccc(-n2cnc3c(=S)nc[nH]c32)cc1", "5.55% (inactive)"],
  ["CCCCCCCCCCCCCCCc1cc(=O)n(-c2ccc(NC(C)=O)cc2)n1C", "-12.6% (inactive)"],
  ["CC(=O)OC1CN(c2ccc(Br)cc2)CC(OC(C)=O)CN(c2ccc(Br)cc2)C1 (configuration not stated)", "-13.8% (inactive)"],
  ["COCCCNc1ccc([N+](=O)[O-])cn1", "-20.4% (inactive)"],
  ["Cc1cccc(NC(=O)c2ccc(Cl)c(Cl)c2)c1", "-0.25% (inactive)"],
  ["Cc1ccc(N2C(=O)/C(=C/c3ccc(N(CCC#N)CCC#N)cc3C)N=C2c2cc([N+](=O)[O-])ccc2Cl)cc1", "32.6% (inactive)"],
  ["COC(=O)C1O[C@H]1c1cccc[n+]1[O-] (mixture of isomers)", "5.7% (inactive)"],
  ["Cc1ccc(S(=O)(=O)N2CCCCC2)cc1", "38.3% (inactive)"],
  ["CCCCCSCCC(=O)O", "11.2% (inactive)"],
  ["C/C(=N\\NC(=S)NCCCCNC(=S)N/N=C(\\C)c1ccccn1)c1ccccc1", "14.7% (inactive)"],
  ["C=C(C)CC1CC(=O)OC1=O (configuration not stated)", "13.6% (inactive)"],
  ["COC(=O)[C@@H]1[C@H]2C[C@@H]3c4[nH]c5ccccc5c4CCN3C[C@@H]2CC[C@@H]1O", "13.9% (inactive)"],
  ["CN(C)C1=NS(=O)(=O)N=C(N(C)c2ccccc2)O1", "6.45% (inactive)"]
]}
